For each record, write down the corresponding IP.
Species on record: Rattus norvegicus
Experiment: Open TG-GATES - Regimen: Daily Repeat
Format: toxicity, organism-based, Sprague-Dawley
Design: regimen Daily Repeat, gender Male, age 6 weeks
Conditions: in vivo, po, 300 mg/kg, 72 h, tissue Plasma, route gavage, dose level Middle, time 3 day
Give bare numbers, in mg/dL.

// worked examples, IP included
O=C(N[C@H](CO)[C@H](O)c1ccc([N+](=O)[O-])cc1)C(Cl)Cl    7.6
CCN1CCCC1CNC(=O)c1cc(S(N)(=O)=O)ccc1OC (centres undefined) [SULPIRIDE]    8
CC(C)(S)[C@@H](N)C(=O)O    7.2

Query: IP; subject: O=C(O)c1cccnc1
8.2

###

Species: Rattus norvegicus
Experiment: Open TG-GATES - Regimen: Single
Type: toxicity, organism-based, Sprague-Dawley
Set-up: regimen Single, gender Male, age 6 weeks
Settings: in vivo, po, 0 mg/kg, 24 h, tissue Plasma, route gavage, dose level Control
For each record, write down the corresponding gamma-GTP.
Numbers only, in IU/L.

// worked examples, gamma-GTP included
CC(=O)Oc1cc(C(C)C)c(OCCN(C)C)cc1C    1.2
O=C(O)c1cccnc1    1.4
C[C@]12CCC(=O)C=C1CC[C@@H]1[C@@H]2CC[C@@]2(C)[C@H]1CC[C@]2(C)O    1.4
Nc1nc(N)c2nc(-c3ccccc3)c(N)nc2n1    1
C#C[C@]1(O)CC[C@H]2[C@@H]3CCc4cc(O)ccc4[C@H]3CC[C@@]21C    0.8

Note: attention shifts to another entry.
Query: gamma-GTP; subject: CN1C(=O)OC(C)(C)C1=O
1

###

Organism: Rattus norvegicus
Experiment: Open TG-GATES - Regimen: Daily Repeat
Assay type: toxicity, organism-based, Sprague-Dawley
Design: regimen Daily Repeat, gender Male, age 6 weeks
Conditions: in vivo, po, 0 mg/kg, […], tissue Plasma, route gavage, dose level Control, time 14 day
For each record, write down the corresponding Na.
Give bare numbers, in meq/L.

// worked examples, Na included
O=C(O)c1cccnc1    138
CCSCC[C@H](N)C(=O)O    141
Oc1ncnc2[nH]ncc12    139.8
CN1C(=O)OC(C)(C)C1=O    145.6
CC(=O)Oc1cc(C(C)C)c(OCCN(C)C)cc1C    141.4

Provide the reported Na of each entry below, same order.
1. Nc1nc(N)c2nc(-c3ccccc3)c(N)nc2n1
2. C#C[C@]1(O)CC[C@H]2[C@@H]3CCc4cc(O)ccc4[C@H]3CC[C@@]21C

[143, 143.2]

Provide the reported Na of each entry below, same order.
1. O=C(N[C@H](CO)[C@H](O)c1ccc([N+](=O)[O-])cc1)C(Cl)Cl
2. CC(=N)S [THIOACETAMIDE]
3. C[C@]12CCC(=O)C=C1CC[C@@H]1[C@@H]2CC[C@@]2(C)[C@H]1CC[C@]2(C)O
4. CCC(C)(C)C(=O)O[C@H]1C[C@@H](C)C=C2C=C[C@H](C)[C@H](CC[C@@H]3C[C@@H](O)CC(=O)O3)[C@H]21

1: 143; 2: 134.8; 3: 141.6; 4: 140.6

###

For each record, write down the corresponding TP.
Species on record: Rattus norvegicus
Assay: Open TG-GATES - Regimen: Daily Repeat
Type: toxicity, organism-based, Sprague-Dawley
Parameters: regimen Daily Repeat, gender Male, age 6 weeks
Conditions: in vivo, po, 300 mg/kg, […], tissue Plasma, route gavage, dose level Middle, time 7 day
One number for each entry, in g/dL.

// worked examples, TP included
O=C(N[C@H](CO)[C@H](O)c1ccc([N+](=O)[O-])cc1)C(Cl)Cl [CHLORAMPHENICOL]    5.7
CCN1CCCC1CNC(=O)c1cc(S(N)(=O)=O)ccc1OC (centres undefined) [SULPIRIDE]    5.8
O=C(O)c1cccnc1 [NIACIN]    5.5

Query: TP; subject: CC(C)(S)[C@@H](N)C(=O)O [PENICILLAMINE]
5.7

Ref: ChEMBL document CHEMBL3885861
